biological target: human PD-1 / PD-L1-Ig binding on Jurkat cell line over-expressing human PD-1 (Jurkat-PD-1) (Homo sapiens, UniProt Q15116); construct: expressed in transfected cells; host or cells: Jurkat; experiment: Jurkat-PD-1 Cell Binding High-Content Screening Assay (CBA); format: cell-based; conditions: Jurkat-PD-1 cells, PE-labeled PD-L1-Ig 20 nM final; read-out: Jurkat HPD1_PDL1 IC50
Sequence (Q15116 25-288): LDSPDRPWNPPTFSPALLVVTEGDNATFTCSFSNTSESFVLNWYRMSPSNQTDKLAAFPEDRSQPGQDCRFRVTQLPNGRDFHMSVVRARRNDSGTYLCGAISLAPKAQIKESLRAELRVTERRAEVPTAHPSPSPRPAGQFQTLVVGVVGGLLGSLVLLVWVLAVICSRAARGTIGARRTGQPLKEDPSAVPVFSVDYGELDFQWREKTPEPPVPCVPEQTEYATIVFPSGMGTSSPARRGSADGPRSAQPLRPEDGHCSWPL
Where a SMILES comes first, the peptide text is derived from it. Bridges are numbered along the chain shown (N, C = ends). [ ]: non-standard residue; d: D form. Bip = N[C@@H](Cc1ccc(-c2ccccc2)cc1)C(=O)O; Cit = NC(=O)NCCC[C@H](N)C(=O)O; Orn = NCCC[C@H](N)C(=O)O; Dab = NCC[C@H](N)C(=O)O; Dap = NC[C@H](N)C(=O)O
For each entry below, report its IC50 value.
Write down the value, and be sure its unit follows.

Value of IC50 reported for the compound CC(C)C[C@@H]1NC(=O)[C@H](CCN)NC(=O)[C@@H](CC(C)C)NC(=O)[C@H](CCN)NC(=O)[C@H](CCCNC(N)=O)NC(=O)[C@H](Cc2ccc(-c3ccccc3)cc2)NC(=O)[C@H](C(C)C)NC(=O)[C@H](Cc2c[nH]c3ccccc23)NC(=O)[C@H](CC(=O)O)NC(=O)[C@H](Cc2ccc(O)cc2)NC(=O)[C@H](CC(N)=O)NC(=O)CSC[C@@H](C(=O)NCC(N)=O)NC(=O)[C@H](CO)NC(=O)[C@H](C(C)C)NC1=O [Compound 1114] ({CH2CO}-NYDWV[Bip][Cit][Dab][dL][Dab]LVSCG-NH2; thioether N-14) is 31.6 nM

Reported IC50 of CC(C)C[C@@H]1NC(=O)[C@H](CCN)NC(=O)[C@@H](CC(C)C)NC(=O)[C@H](CCCCN)NC(=O)[C@H](CCCNC(N)=O)NC(=O)[C@H](Cc2ccc(-c3ccccc3)cc2)NC(=O)[C@H](C(C)C)NC(=O)[C@H](Cc2c[nH]c3ccccc23)NC(=O)[C@H](CC(=O)O)NC(=O)[C@H](Cc2ccc(O)cc2)NC(=O)[C@H](CC(N)=O)NC(=O)CSC[C@@H](C(=O)NCC(N)=O)NC(=O)[C@H](CO)NC(=O)[C@H](C(C)C)NC1=O [Compound 1113] ({CH2CO}-NYDWV[Bip][Cit]K[dL][Dab]LVSCG-NH2; thioether N-14) : 15.6 nM

IC50 for CC(C)C[C@@H]1NC(=O)[C@H](Cc2c[nH]c3ccccc23)NC(=O)[C@H](CC(=O)O)NC(=O)[C@H](Cc2ccc(O)cc2)NC(=O)[C@H](Cc2ccccc2)NC(=O)CSC[C@@H](C(=O)N[C@@H](C)C(N)=O)NC(=O)[C@H](CO)NC(=O)[C@H](C(C)C)NC(=O)[C@H](CC(C)C)NC(=O)[C@H](CC(N)=O)NC(=O)[C@@H](CC(C)C)NC(=O)[C@H](CCCN)NC(=O)[C@H](CCCNC(N)=O)NC(=O)[C@H](Cc2ccc(-c3ccccc3)cc2)NC1=O [Compound 1234] ({CH2CO}-FYDWL[Bip][Cit][Orn][dL]NLVSCA-NH2; thioether N-14) is 36.6 nM

Per the records, this compound ( `CC(C)C[C@H]1NC(=O)[C@H](CCCN)NC(=O)[C@H](CN)NC(=O)[C@H](Cc2ccc(-c3ccccc3)cc2)NC(=O)[C@H](C(C)C)NC(=O)[C@H](Cc2c[nH]c3ccccc23)NC(=O)[C@H](CC(=O)O)NC(=O)[C@H](Cc2ccncc2)NC(=O)[C@H](CN)NC(=O)CSC[C@@H](C(=O)N[C@@H](C)C(N)=O)NC(=O)[C@H]([C@@H](C)O)NC(=O)[C@H](C(C)C)NC(=O)[C@H](CC2CCCCC2)NC(=O)[C@H](CCN)NC1=O` ) has IC50 equal to 26 nM

Entry CC(C)C[C@@H]1NC(=O)[C@H](Cc2c[nH]c3ccccc23)NC(=O)[C@H](CC(=O)O)NC(=O)[C@H](Cc2ccc(O)cc2)NC(=O)[C@H](Cc2ccccc2)NC(=O)CSC[C@@H](C(=O)N[C@@H](C)C(N)=O)NC(=O)[C@H]([C@@H](C)O)NC(=O)[C@H](C(C)C)NC(=O)[C@H](CC(C)C)NC(=O)[C@H](CCN)NC(=O)[C@@H](C)NC(=O)[C@H](CN)NC(=O)[C@H](C(C)C)NC(=O)[C@H](Cc2ccc(-c3ccccc3)cc2)NC1=O [Compound 1097] ({CH2CO}-FYDWL[Bip]V[Dap][dA][Dab]LVTCA-NH2; thioether N-14) ; IC50 = 132 nM

Lab book: IC50 of CC(C)C[C@@H]1NC(=O)[C@H](CCN)NC(=O)[C@@H](CC(C)C)NC(=O)[C@H](CCCN)NC(=O)[C@H](CCCNC(N)=O)NC(=O)[C@H](Cc2ccc(-c3ccccc3)cc2)NC(=O)[C@H](C(C)C)NC(=O)[C@H](Cc2c[nH]c3ccccc23)NC(=O)[C@H](CC(=O)O)NC(=O)[C@H](Cc2ccc(O)cc2)NC(=O)[C@H](CC(N)=O)NC(=O)CSC[C@@H](C(=O)N[C@@H](C)C(N)=O)NC(=O)[C@H](CO)NC(=O)[C@H](C(C)C)NC1=O [Compound 1109] ({CH2CO}-NYDWV[Bip][Cit][Orn][dL][Dab]LVSCA-NH2; thioether N-14) noted as 36 nM

For record `CC[C@H](C)[C@@H]1NC(=O)[C@H](Cc2ccc(-c3ccccc3)cc2)NC(=O)[C@H](C(C)C)NC(=O)[C@H](Cc2cccc(C)c2)NC(=O)[C@H](CC(=O)O)NC(=O)[C@H](Cc2ccc(C(=O)O)cc2)NC(=O)[C@H](Cc2ccncc2)NC(=O)CSC[C@@H](C(=O)N[C@@H](CCN)C(N)=O)NC(=O)[C@H]([C@@H](C)O)NC(=O)[C@H](C(C)C)NC(=O)[C@H](CC2CCCCC2)NC(=O)[C@H](CCN)NC(=O)[C@@H](CC(C)C)NC(=O)[C@H](CCCN)NC1=O` the listed IC50 is 24.3 nM

Lab note: measured IC50 of CC(C)C[C@@H]1NC(=O)[C@H](Cc2c[nH]c3ccccc23)NC(=O)[C@H](CC(=O)O)NC(=O)[C@H](Cc2ccc(O)cc2)NC(=O)[C@H](Cc2ccccc2)NC(=O)CSC[C@@H](C(=O)N[C@@H](C)C(N)=O)NC(=O)[C@H]([C@@H](C)O)NC(=O)[C@H](C(C)C)NC(=O)[C@H](CC(C)C)NC(=O)[C@H](CC(N)=O)NC(=O)[C@@H](C)NC(=O)[C@H](CCCN)NC(=O)[C@H](C(C)C)NC(=O)[C@H](Cc2ccc(-c3ccccc3)cc2)NC1=O [Compound 1092] ({CH2CO}-FYDWL[Bip]V[Orn][dA]NLVTCA-NH2; thioether N-14) was 229 nM

* * *

target: human PD-1 / PD-L1-Ig binding on Jurkat cell line over-expressing human PD-1 (Jurkat-PD-1) (Homo sapiens); construct: expressed in transfected cells; host or cells: Jurkat; test: Jurkat-PD-1 Cell Binding High-Content Screening Assay (CBA); format: cell-based; conditions: Jurkat-PD-1 cells, PE-labeled PD-L1-Ig 20 nM final; read-out: Jurkat HPD1_PDL1 IC50
readout.kind: pIC50
The value called pIC50 is obtained by taking minus log10 of the concentration in mol/L.

Note to self: pIC50 recorded for `CC(C)C[C@H]1NC(=O)[C@H](CCCN)NC(=O)[C@H](CCCNC(N)=O)NC(=O)[C@H](Cc2ccc(-c3ccccc3)cc2)NC(=O)[C@H](C(C)C)NC(=O)[C@H](Cc2c[nH]c3ccccc23)NC(=O)[C@H](CC(=O)O)NC(=O)[C@H](Cc2ccncc2)NC(=O)[C@H](CN)NC(=O)CSC[C@@H](C(=O)N[C@@H](C)C(N)=O)NC(=O)[C@H]([C@@H](C)O)NC(=O)[C@H](C(C)C)NC(=O)[C@H](CC2CCCCC2)NC(=O)[C@H](CCN)NC1=O` was 8.35

Short answer for `CC[C@H](C)[C@@H]1NC(=O)[C@H](Cc2ccc(-c3ccccc3)cc2)NC(=O)[C@H](C(C)C)NC(=O)[C@H](Cc2cccc(C)c2)NC(=O)[C@H](CC(=O)O)NC(=O)[C@H](Cc2ccc(OCC(=O)O)cc2)NC(=O)[C@H](CN)NC(=O)CSC[C@@H](C(=O)N[C@@H](C)C(N)=O)NC(=O)[C@H]([C@@H](C)O)NC(=O)[C@H](C(C)C)NC(=O)[C@H](CC2CCCCC2)NC(=O)[C@H](CCN)NC(=O)[C@@H](CC(C)C)NC(=O)[C@H](CCCN)NC1=O` : pIC50 was 7.94

* * *

For each entry below, report its IC50 value.
molecular target: human PD-1 / PD-L1-Ig binding on Jurkat cell line over-expressing human PD-1 (Jurkat-PD-1) (Homo sapiens); construct: expressed in transfected cells; host or cells: Jurkat; assay: Jurkat-PD-1 Cell Binding High-Content Screening Assay (CBA); type: cell-based; conditions: Jurkat-PD-1 cells, PE-labeled PD-L1-Ig 20 nM final; read-out: Jurkat HPD1_PDL1 IC50
Where a SMILES comes first, the peptide text is derived from it. Bridges are numbered along the chain shown (N, C = ends). [ ]: non-standard residue; d: D form. Bip = N[C@@H](Cc1ccc(-c2ccccc2)cc1)C(=O)O; Dab = NCC[C@H](N)C(=O)O
Just the number please, in nM, no unit attached.

Measured IC50, CC(C)C[C@H]1NC(=O)[C@H](CCCN)NC(=O)[C@H](CCC(=O)O)NC(=O)[C@H](Cc2ccc(-c3ccccc3)cc2)NC(=O)[C@H](C(C)C)NC(=O)[C@H](Cc2c[nH]c3ccccc23)NC(=O)[C@H](CC(=O)O)NC(=O)[C@H](Cc2ccc(-c3cccc(C(=O)O)c3)cc2)NC(=O)[C@H](Cc2ccncc2)NC(=O)CSC[C@@H](C(=O)N[C@@H](C)C(N)=O)NC(=O)[C@H]([C@@H](C)O)NC(=O)[C@H](C(C)C)NC(=O)[C@H](CC2CCCCC2)NC(=O)[C@H](CCN)NC1=O [Compound 2164] : 8

Given item CC(C)C[C@@H]1NC(=O)[C@H](CCCCN)NC(=O)[C@@H](CC(C)C)NC(=O)[C@H](CCN)NC(=O)[C@H](Cc2cnc[nH]2)NC(=O)[C@H](Cc2ccc(-c3ccccc3)cc2)NC(=O)[C@H](C(C)C)NC(=O)[C@H](Cc2c[nH]c3ccccc23)NC(=O)[C@H](CC(=O)O)NC(=O)[C@H](Cc2ccc(O)cc2)NC(=O)[C@H](CC(N)=O)NC(=O)CSC[C@@H](C(=O)N[C@@H](C)C(N)=O)NC(=O)[C@H]([C@@H](C)O)NC(=O)[C@H](C(C)C)NC1=O [Compound 1137] ({CH2CO}-NYDWV[Bip]H[Dab][dL]KLVTCA-NH2; thioether N-14) , the value recorded as its IC50 is 47

Ref: patent US20250163104A1
